Tgt: CRBN and Helios (IKZF2) (Homo sapiens, UniProt Q96SW2+Q9UKS7)
Construct: His (N); Strep (N)
Sequence (Q96SW2 whole entry): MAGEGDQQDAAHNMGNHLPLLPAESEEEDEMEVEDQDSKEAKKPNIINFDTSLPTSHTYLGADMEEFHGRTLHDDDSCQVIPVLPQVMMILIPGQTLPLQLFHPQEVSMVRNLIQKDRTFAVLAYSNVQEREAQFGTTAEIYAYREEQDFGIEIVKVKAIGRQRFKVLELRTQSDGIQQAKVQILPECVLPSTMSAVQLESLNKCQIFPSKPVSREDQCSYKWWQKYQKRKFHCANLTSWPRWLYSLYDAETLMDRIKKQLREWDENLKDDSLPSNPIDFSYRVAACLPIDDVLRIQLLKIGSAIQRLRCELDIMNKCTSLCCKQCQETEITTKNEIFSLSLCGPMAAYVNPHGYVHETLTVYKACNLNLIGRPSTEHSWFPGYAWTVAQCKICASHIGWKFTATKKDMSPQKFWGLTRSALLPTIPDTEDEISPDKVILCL
Sequence (Q9UKS7 whole entry): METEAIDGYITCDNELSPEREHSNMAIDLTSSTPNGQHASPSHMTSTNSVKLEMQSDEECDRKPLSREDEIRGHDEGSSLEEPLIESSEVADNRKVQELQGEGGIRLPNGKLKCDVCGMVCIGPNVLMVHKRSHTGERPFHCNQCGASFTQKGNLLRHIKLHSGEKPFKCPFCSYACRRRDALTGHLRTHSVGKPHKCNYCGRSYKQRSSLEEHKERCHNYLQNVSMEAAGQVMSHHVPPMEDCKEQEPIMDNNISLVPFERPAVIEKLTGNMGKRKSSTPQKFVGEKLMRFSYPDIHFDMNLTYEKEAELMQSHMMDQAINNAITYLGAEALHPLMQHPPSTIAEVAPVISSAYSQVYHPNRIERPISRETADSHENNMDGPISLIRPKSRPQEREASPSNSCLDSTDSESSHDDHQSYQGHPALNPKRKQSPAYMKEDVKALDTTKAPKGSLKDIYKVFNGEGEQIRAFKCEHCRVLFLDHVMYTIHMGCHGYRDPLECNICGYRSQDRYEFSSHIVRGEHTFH
Protocol Summary: TR-FRET dimerization assay (CRBN-IKZF2 ternary complex formation)
Format: binding
Test Context: compound concentration 6.6667E−06; n=1
Description: A focused library of imide analogs was synthesized and assessed for their ability to induce dimerization between CRBN and Helios in a time-resolved fluorescence energy transfer (TR-FRET) assay (FIG. 1A). Prior to TR-FRET measurements being conducted, the reactions were incubated for 15 min at rt. […] Data from single measurements (n=1), each calculated as an average of at least three technical replicates per well per experiment are presented in Table 1. […]
// classify: if (TR-FRET-IKZF2 (Normalized to CC-885) < 0.4) Y else N

Quick check: TR-FRET-IKZF2 (Normalized to CC-885) of O=C1CCC(N2C(=O)C=C(Nc3ccc4cc[nH]c4c3)C2=O)C(=O)N1 (centres unmarked) under 0.4?
N

Quick check: TR-FRET-IKZF2 (Normalized to CC-885) of CCOC(=O)c1cccc(NC2=CC(=O)N(C3CCC(=O)NC3=O)C2=O)c1 (centres unmarked) under 0.4?
Y

Quick check: TR-FRET-IKZF2 (Normalized to CC-885) of CCOC(=O)CNC1=CC(=O)N(C2CCC(=O)NC2=O)C1=O (centres unmarked) under 0.4?
Y

Others:
Quick check: TR-FRET-IKZF2 (Normalized to CC-885) of Cc1ccc(NC(=O)NCc2ccc3c(c2)CN(C2CCC(=O)NC2=O)C3=O)cc1Cl (centres unmarked) [CC-885, reference compound] under 0.4?
N

Quick check: TR-FRET-IKZF2 (Normalized to CC-885) of Cc1ccc(NC(=O)NCc2ccccc2NC2=CC(=O)N(C3CCC(=O)NC3=O)C2=O)cc1Cl (centres unmarked) under 0.4?
Y

Quick check: TR-FRET-IKZF2 (Normalized to CC-885) of O=C1CCC(N2C(=O)C=C(Nc3ccc(Cl)cc3)C2=O)C(=O)N1 (centres unmarked) under 0.4?
Y

Quick check: TR-FRET-IKZF2 (Normalized to CC-885) of Cc1ccc(NC(=O)Cc2cccc(NC3=CC(=O)N(C4CCC(=O)NC4=O)C3=O)c2)cc1Cl (centres unmarked) under 0.4?
N

Quick check: TR-FRET-IKZF2 (Normalized to CC-885) of Cc1ccc(NC(=O)NC(C)(C)c2cccc(NC3=CC(=O)N(C4CCC(=O)NC4=O)C3=O)c2)cc1Cl (centres unmarked) under 0.4?
N

Values were extracted from patent US12227488B2.
